System: NCI-H23 lung
METHOD_NOTES: NCI-60 one-dose screen, 48 h (100 = growth as untreated, 0 = no growth, -100 = all killed)
TEST_PARAMETERS: 10 µM unless noted
This is part of a sample that, as a whole, favours compounds with a hit. Of some 83,000 tested, about 20% had one in any assay. Calls of active or inactive are those of the source. How the source made its calls: active means growth percent below 10; inactive means the rest.
Listed here are compounds together with their documented growth.

COMPOUND	TARGET	growth
COc1ccc(NC(=S)/N=c2\oc3c(OC)cccc3cc2-c2cc3ccccc3[nH]2)cc1	NCI-H23 lung	70.1% (inactive)

input: Please list growth recorded for the compound COc1ccc(/C=C2\CCCC3=C2NC(C)=NC3c2ccc(OC)c(OC)c2)cc1OC (centres undefined)
output: 29.1% (inactive)

input: Check the records and state growth for CCCCOc1nc2c(C)cccc2cc1C1CNC(=O)c2ccccc2N1 (centres undefined)
output: 80% (inactive)

input: Quickly give me recorded growth for CCC1=C[C@@H]2CN(C1)Cc1c([nH]c3ccccc13)[C@@](C(=O)OC)(c1cc3c(cc1OC)N(C=O)[C@H]1[C@@](O)(C(=O)OC)[C@H](OC(C)=O)[C@]4(CC)[C@@H]5C[C@@H]5CN5CC[C@]31[C@@H]54)C2
output: 15.7% (inactive)
